This collection of values is drawn from patent US7582667B2.

Recorded melting point by entry

Supply recorded melting point for COc1ccc2c(c1C)CCc1ccc(-c3cc(F)cc(F)c3)cc1C21N=C(N)N(C)C1=O (centres unmarked) [Example 10] here.
245 to 249 °C

Supply recorded melting point for COc1ccc2c(c1C)CCc1ccc(-c3cccc(C#N)c3)cc1C21N=C(N)N(C)C1=O (centres unmarked) [Example 8] here.
269 to 280 °C

Supply recorded melting point for COc1ccc2c(c1C)CCc1ccc(-c3cccnc3)cc1C21N=C(N)N(C)C1=O (centres unmarked) [Example 3] here.
235 to 239 °C

Supply recorded melting point for COc1ccc2c(c1C)CCc1ccc(-c3cc(F)ccc3F)cc1C21N=C(N)N(C)C1=O (centres unmarked) [Example 7] here.
155 to 195 °C

Supply recorded melting point for COc1ccc2c(c1C)CCc1ccc(-c3cccnc3F)cc1C21N=C(N)N(C)C1=O (centres unmarked) [Example 4] here.
153 to 155 °C

----------
biological target: human BACE1 (Homo sapiens, UniProt P56817); assay: Fluorescent kinetic assay, BACE-1 binding affinity (peptide substrate WABC-6 cleavage); type: biochemical; settings: 10 nM enzyme, 25 μM substrate WABC-6, Na-Acetate pH 4.5, room temperature
Sequence (P56817 46-501): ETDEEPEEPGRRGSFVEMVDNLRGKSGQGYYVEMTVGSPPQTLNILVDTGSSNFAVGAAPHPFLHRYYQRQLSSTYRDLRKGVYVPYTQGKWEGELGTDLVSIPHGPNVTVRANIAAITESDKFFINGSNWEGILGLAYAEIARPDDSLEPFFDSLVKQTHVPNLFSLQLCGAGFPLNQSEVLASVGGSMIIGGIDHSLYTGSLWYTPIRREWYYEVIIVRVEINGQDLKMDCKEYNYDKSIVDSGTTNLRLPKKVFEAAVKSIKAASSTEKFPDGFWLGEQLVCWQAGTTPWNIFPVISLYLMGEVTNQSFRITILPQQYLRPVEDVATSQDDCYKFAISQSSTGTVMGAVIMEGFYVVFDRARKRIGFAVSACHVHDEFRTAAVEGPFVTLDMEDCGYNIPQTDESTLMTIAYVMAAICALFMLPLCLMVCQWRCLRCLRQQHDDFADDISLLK
measurement_kind: IC50 (µM)

| molecule | target_or_test_system | reading |
| --- | --- | --- |
| COc1ccc2c(c1C)CCc1ccc(-c3cccnc3F)cc1C21N=C(N)N(C)C1=O (stereo not shown) | human BACE1 (Homo sapiens, UniProt P56817) | 0.063 |
| COc1ccc2c(c1C)CCc1ccc(-c3cccc(C#N)c3)cc1C21N=C(N)N(C)C1=O (stereo not shown) | human BACE1 (Homo sapiens, UniProt P56817) | 0.235 |
| COc1ccc2c(c1)CCc1ccc(-c3ccccc3)cc1C21N=C(N)N(C)C1=O (stereo not shown) | human BACE1 (Homo sapiens, UniProt P56817) | 0.18 |

P = COc1cccc(-c2ccc3c(c2)C2(N=C(N)N(C)C2=O)c2ccc(OC)c(C)c2CC3)c1 (stereo not shown)
Q = COc1ccc2c(c1C)CCc1ccc(-c3cccnc3)cc1C21N=C(N)N(C)C1=O (stereo not shown)
R = COc1ccc2c(c1C)CCc1ccc(-c3cc(F)ccc3F)cc1C21N=C(N)N(C)C1=O (stereo not shown)
S = COc1ccc2c(c1C)CCc1ccc(-c3cc(F)cc(F)c3)cc1C21N=C(N)N(C)C1=O (stereo not shown)
Exam item: list the entries in increasing order of IC50. Submit the labels in the order that the ranking request calls for.
Q, P, R, S
